# Test system: P388 leukemia ip, CD2F1 mice, survival T/C
# Method summary: NCI In Vivo Anticancer Drug Screen. Data for tumor model P388 Leukemia (intraperitoneal) in CD2F1 (CDF1) mice
# Test context: endpoint: median survival time; dose: 400.0 mg/kg/injection; schedule: Q04DX003 (ip); vehicle: saline; higher = longer survival
Toxic doses and inconclusive results are not listed.
Assay metric: T/C

[
  {
    "Test smiles": "CCCS(=O)(=O)/C=C/C(=O)c1ccc2ccccc2c1",
    "Assayed target": "P388 leukemia ip, CD2F1 mice, survival T/C",
    "T/C": "106 % of control"
  },
  {
    "Test smiles": "Cc1cc(NC(=O)Nc2ccc(C3=NCCN3)cc2)ccc1NC(=O)Nc1ccc(C2=NCCN2)cc1",
    "Assayed target": "P388 leukemia ip, CD2F1 mice, survival T/C",
    "T/C": "109 % of control"
  }
]

Using the record for `Cn1c(=O)c2[nH]c(-n3ccc(=N)cc3)nc2n(C)c1=O` , report its T/C. 99 % of control

Cool, now `O=C(O)c1c[nH]c2cc(OCc3ccc(F)cc3)ccc2c1=O` 90 % of control

Cool, now `C(/C=C/c1cc2cc(C3=NCCN3)ccc2o1)=C\c1ccc(C2=NCCN2)cc1` 118 % of control

Cool, now `C=CCOC(OCC=C)C(OCC=C)OCC=C` 100 % of control

Cool, now `CC(=O)CC(=O)N1CCN(C(=O)CC(C)=O)CC1` 100 % of control

Cool, now `Cn1c(=O)c2c(nc(Cl)n2Cc2ccc([N+](=O)[O-])cc2)n(C)c1=O` 90 % of control

====

# Test system: P388 leukemia ip, CD2F1 mice, survival T/C
# Method summary: NCI In Vivo Anticancer Drug Screen. Data for tumor model P388 Leukemia (intraperitoneal) in CD2F1 (CDF1) mice
# Test context: endpoint: median survival time; dose: 100.0 mg/kg/injection; schedule: Q01DX005 (ip); vehicle: Klucel (hydroxypropylcellulose) (HPC); higher = longer survival
Toxic doses and inconclusive results are not listed.
T/C by entry:

Using the record for COC1C(OC(N)=O)C(O)C(Oc2ccc3c(O)c(NC(=O)c4ccc(O)c(CC=C(C)C)c4)c(=O)oc3c2C)OC1(C)C (configuration not stated) , report its T/C. 106 % of control

Cool, now CCOP(=O)(CSc1ccccc1)NC1CCCCC1 (configuration not stated) 88 % of control

Cool, now `CCN(CC)c1cc(C)c(Cc2c(OC)ccc3ccccc23)cc1C` 92 % of control

====

# Test system: P388 leukemia ip, CD2F1 mice, survival T/C
# Method summary: NCI In Vivo Anticancer Drug Screen. Data for tumor model P388 Leukemia (intraperitoneal) in CD2F1 (CDF1) mice
# Test context: endpoint: median survival time; dose: 25.0 mg/kg/injection; schedule: Q01DX005 (ip); vehicle: Klucel (hydroxypropylcellulose) (HPC); higher = longer survival
Inconclusive results and toxic doses are left out.
Assay metric: T/C

For orientation, consider the following solved cases.
[
  {
    "Compound": "Cc1cc(CC(O)(c2ccccc2)c2ccccc2)nc2[nH]c(=O)ccc12",
    "Assay metric": "T/C",
    "Result": "97 % of control"
  },
  {
    "Compound": "O=[N+]([O-])c1ccc(-c2cn3nc(-c4ccccc4)c(-c4ccccc4)nc3n2)cc1",
    "Assay metric": "T/C",
    "Result": "98 % of control"
  },
  {
    "Compound": "CCOC(=O)c1ccc2c(c1)nc(-c1ccccn1)n2CCc1ccncc1",
    "Assay metric": "T/C",
    "Result": "103 % of control"
  }
]

Using the record for CC(NNC(=S)N1CCN(c2ccccn2)CC1)c1ccccn1 (stereo not given) , report its T/C. 101 % of control

Cool, now `COc1ccc(/C=N/Nc2cc(C)nc3ccc(F)cc23)c2ccccc12` 98 % of control

====

T/C by entry:
# Tested on: P388 leukemia ip, CD2F1 mice, survival T/C
# Method summary: NCI In Vivo Anticancer Drug Screen. Data for tumor model P388 Leukemia (intraperitoneal) in CD2F1 (CDF1) mice
# Test context: endpoint: median survival time; dose: 12.5 mg/kg/injection; schedule: Q01DX009 (ip); vehicle: saline with Tween-80; higher = longer survival
Inconclusive results and toxic doses are left out.

For orientation, consider the following solved cases.
[
  {
    "Compound": "CC(C)=N/N=C(/N)[Se]",
    "Assayed target": "P388 leukemia ip, CD2F1 mice, survival T/C",
    "Result": "97 % of control"
  },
  {
    "Compound": "Nc1nc(N)c2cc(CNc3ccc(Cl)c(Cl)c3)ccc2n1",
    "Assayed target": "P388 leukemia ip, CD2F1 mice, survival T/C",
    "Result": "110 % of control"
  },
  {
    "Compound": "COc1ccc(CSC(=S)Nc2cccc(S(F)(F)(F)(F)F)c2)cc1",
    "Assayed target": "P388 leukemia ip, CD2F1 mice, survival T/C",
    "Result": "97 % of control"
  },
  {
    "Compound": "Cn1c(=O)c2nc(-c3ccccc3)c(-c3ccccc3)nc2n(C)c1=O",
    "Assayed target": "P388 leukemia ip, CD2F1 mice, survival T/C",
    "Result": "96 % of control"
  }
]

Now look at this one.
// fetch P388 leukemia ip, CD2F1 mice, survival T/C T/C for CC1(C)CCCC12C=NCC2 (stereo not given) 95 % of control

====

# System: P388 leukemia ip, CD2F1 mice, survival T/C
# Method summary: NCI In Vivo Anticancer Drug Screen. Data for tumor model P388 Leukemia (intraperitoneal) in CD2F1 (CDF1) mice
# Test context: endpoint: median survival time; dose: 50.0 mg/kg/injection; schedule: Q04DX003 (ip); vehicle: saline with Tween-80; higher = longer survival
Toxic doses and inconclusive results are not listed.
Assay metric: T/C

// fetch P388 leukemia ip, CD2F1 mice, survival T/C T/C for `O=C(NC1CCCCC1)C(=NC1CCCCC1)c1cc(Cl)c(Cl)c(Cl)c1Cl` 98 % of control

Cool, now `CC(C)N=Cc1ccccc1O.CC(C)N=Cc1ccccc1O.[Cu]` 100 % of control

Cool, now `O=C(CC(O)(C(F)(F)F)C(F)(F)F)c1ccc(Cl)cc1` 104 % of control

Cool, now `CCOC(=O)c1sc(SSc2sc(C(=O)OCC)c(C)c2[N+](=O)[O-])c([N+](=O)[O-])c1C` 93 % of control

Cool, now `c1ccc(C2(c3ccccc3)CN3CCSC3=N2)cc1` 99 % of control

Cool, now `C=Cc1ccccc1-c1ccccc1C(=O)OC` 101 % of control

Cool, now `Cc1ncc2c(=O)c3c(ccc4ccccc43)oc2n1` 96 % of control

Cool, now `CS(=O)(=O)OCC(=O)NCCNC(=O)COS(C)(=O)=O` 120 % of control

====

T/C by entry:
# Tested on: P388 leukemia ip, CD2F1 mice, survival T/C
# Method summary: NCI In Vivo Anticancer Drug Screen. Data for tumor model P388 Leukemia (intraperitoneal) in CD2F1 (CDF1) mice
# Test context: endpoint: median survival time; dose: 12.5 mg/kg/injection; schedule: Q01DX009 (ip); vehicle: other; higher = longer survival
Inconclusive results and toxic doses are left out.

[
  {
    "Molecule": "COc1ccc2nc3cc(Cl)ccc3c(Nc3ccc(NC(C)=O)cc3)c2n1",
    "Result": "102 % of control"
  },
  {
    "Molecule": "COc1cccc2c1C(=O)c1c(O)c3c(c(O)c1C2=O)CC(O)(C(=O)COc1ccccc1)CC3O (stereo unspecified)",
    "Result": "97 % of control"
  },
  {
    "Molecule": "CNC(=S)NNc1cccc2ccccc12",
    "Result": "97 % of control"
  },
  {
    "Molecule": "O=[N+]([O-])c1c[nH]n2c([N+](=O)[O-])cnc12",
    "Result": "101 % of control"
  },
  {
    "Molecule": "N#Cc1nn(-c2ccccc2)sc1=N",
    "Result": "100 % of control"
  }
]

Now look at this one.
Using the record for CC(=O)OC1OC(COS(=O)(=O)c2ccc(C)cc2)C(OC(C)=O)C(OC(C)=O)C1OC(C)=O (stereo unspecified) , report its T/C. 93 % of control

====

# Tested on: P388 leukemia ip, CD2F1 mice, survival T/C
# Method summary: NCI In Vivo Anticancer Drug Screen. Data for tumor model P388 Leukemia (intraperitoneal) in CD2F1 (CDF1) mice
# Test context: endpoint: median survival time; dose: 50.0 mg/kg/injection; schedule: Q04DX002 (ip); vehicle: saline with Tween-80; higher = longer survival
Toxic doses and inconclusive results are not listed.
Assay metric: T/C

[
  {
    "Compound": "O=C1C(=Cc2ccccc2)C(=O)c2ccccc21",
    "T/C": "109 % of control"
  },
  {
    "Compound": "CN=C(N)N/N=C(/C)c1ccc2c(c1)Cc1cc(I)ccc1-2",
    "T/C": "100 % of control"
  },
  {
    "Compound": "CCCn1c2ccccc2c2c(C)c3cnccc3c(C)c21",
    "T/C": "94 % of control"
  },
  {
    "Compound": "C=C1C(=O)OC2CC(C)C3C(OC(C)=O)CC(OC(C)=O)C3(C)CC12 (stereo unspecified)",
    "T/C": "103 % of control"
  },
  {
    "Compound": "COc1ccc2[nH]c3cc4ccncc4cc3c2c1",
    "T/C": "97 % of control"
  }
]

Now look at this one.
Using the record for `CSC(=S)/N=c1\c(C)cccn1C` , report its T/C. 100 % of control

Data provenance: PubChem BioAssay AID330
